Test system: Plasmodium falciparum
Assay: Screen against P. falciparum Asexual Blood Stage (ABS), at 5uM
Type: functional, Dd2
Details: tested at 5 uM
Among all 65,000 compounds or so, about 2,100 (3.2%) showed an effect of 50% or more. The median lay at about -52%. Only a selection was taken, and strong results are over-represented in it overall.
With a cut-off of -20%, any INHIBITION strictly below it is called 1 (yes); any INHIBITION meeting it or above is called 0 (no).

{"columns": ["Compound", "Classification"],
 "data": [
  ["CCNC(=O)c1cn2cc(-c3ccccc3Cl)n(CC3CC3)c(=O)c2n1", "0 (no)"],
  ["CNC(=O)c1cn2cc(-c3ccccc3Cl)n(CC=C(C)C)c(=O)c2n1", "0 (no)"],
  ["CNC(=O)c1cn2cc(-c3cccc(Cl)c3)n(CC=C(C)C)c(=O)c2n1", "0 (no)"],
  ["CC(Cn1cncn1)NC(=O)N1CC2(CCCC2)c2ccccc21 (stereo unspecified)", "1 (yes)"],
  ["COc1cccc(CN(C)C(=O)CN2CC(n3nc(C)cc3C)C2)c1", "0 (no)"],
  ["Cc1cc(C(=O)N2CCCC(N3CCCCCC3)C2)nn1C(C)(C)C (stereo unspecified)", "0 (no)"],
  ["CS(=O)(=O)N1CC2(CCN(CC3CCCCC3)C2)Cc2ccccc21 (stereo unspecified)", "1 (yes)"],
  ["CNC(=O)c1cn2cc(-c3ccc(F)cc3)n(CC=C(C)C)c(=O)c2n1", "0 (no)"],
  ["Cc1ccc(-c2nc(CSCCC(=O)NC(N)=O)co2)cc1", "1 (yes)"],
  ["CS(=O)(=O)N1CC2(CCN(CC3CCCCC3)CC2)Cc2ccccc21", "0 (no)"],
  ["CN(C)C(=O)c1cn2cc(-c3cccc(Cl)c3)n(CC3CC3)c(=O)c2n1", "1 (yes)"]
]}

* * *

System: Plasmodium falciparum
Assay: Screen against P. falciparum Asexual Blood Stage (ABS), at 5uM
Format: functional, Dd2
Details: tested at 5 uM
Among all 65,000 compounds or so, about 2,100 (3.2%) showed an effect of 50% or more. The median lay at about -52%. For the sample, strong results were picked, then their nearest neighbours and some compounds at random.
Label 1 when INHIBITION is at or above -40%; anything below gets 0.

{"columns": ["Compound", "Classification"],
 "data": [
  ["COc1ccc(Oc2ncccc2C(F)(F)F)cc1CN1CCCC1", 1],
  ["CCOc1cccc2c1OCC(=O)N(c1ccc3c(c1)OCCO3)C2", 0],
  ["CC(C)c1nnc2ccc(N3CCCC(C(=O)Nc4nccs4)C3)nn12 (stereo not drawn)", 0],
  ["CC1CCC(NC(=O)c2nn(C)cc2Br)CC1 (stereo not drawn)", 0],
  ["CC(C)c1nnc2ccc(N3CCC(C(=O)Nc4nccs4)CC3)nn12", 1],
  ["Cc1csc(CCCNC(C)CC(=O)Nc2cccc(C)c2C)n1 (stereo not drawn)", 1],
  ["Cn1cnc2c(N3CCCC3)nc(C3CCN(CC4CC4)CC3)cc21", 1],
  ["COc1ccccc1NC(=O)CC(C)NCc1scnc1C (stereo not drawn)", 1],
  ["CC(NCC(=O)NCC(=O)Nc1ccc(F)cc1)c1cccs1 (stereo not drawn)", 0],
  ["Cc1cccc(CO[C@@H]2CO[C@@]3(CCN(S(=O)(=O)N(C)C)C3)C2)n1", 0],
  ["CCN(CC)c1ccc2ccc(C(=O)N3CCCCO3)cn12", 1],
  ["COc1ccc(Oc2nccc3occc23)cc1CN1CCCC1", 1],
  ["Cc1ccc(-c2cn[nH]c2C2CCCN(c3cnccn3)C2)cc1 (stereo not drawn)", 1]
]}

* * *

Test system: Plasmodium falciparum
Assay: Screen against P. falciparum Asexual Blood Stage (ABS), at 5uM
Assay type: functional, Dd2
Conditions: tested at 5 uM
The whole screen tested about 65,000 compounds, of which about 2,100 (3.2%) showed an effect of 50% or more. The median lay at about -52%. The full list was thinned out, with strong results kept by preference.
Attribute measured: INHIBITION (%)

{"columns": ["Molecule", "Test value"],
 "data": [
  ["CCN1CCCC(O)(CN(C)Cc2ccccc2F)C1 (stereo not drawn)", 57.5],
  ["O=C(C1CC1)N1C[C@H]2CCCN(S(=O)(=O)c3ccc4c(c3)CCC4)[C@H]2C1", -49.4],
  ["O=S(=O)(c1ccccc1)N1CCC2(CCCN2Cc2cccc(Cl)c2)C1 (stereo not drawn)", 18.8],
  ["Cc1nc(CN2CCc3ncnc(C)c3CC2)cs1", -152],
  ["COc1ccc(NC2(C(=O)N3CCCn4cncc4C3)CCCC2)cc1", 45],
  ["CC(C)c1noc(CN2CCN(C(=O)c3cccnc3O)CC2)n1", -63.3],
  ["O=c1oc2ccccc2n1CCCN1CCCC1c1ccc(O)cc1 (stereo not drawn)", 54.1],
  ["CCN1CCCC(O)(CNCc2ccccc2F)C1 (stereo not drawn)", 40.6],
  ["CC(NCCn1cccn1)c1cc(F)ccc1F (stereo not drawn)", 0.681],
  ["O=C(NCc1ccccn1)[C@@H]1COC[C@H]2CN(c3ncccn3)C[C@H]21", -20.1],
  ["Cc1ccc(C(=O)N2CCC3(CCN3Cc3ccc(F)cc3)C2)cn1 (stereo not drawn)", -74.2],
  ["COc1ccc(CN(C)C(=O)CN2CC(n3cccn3)C2)cc1F", 26.7],
  ["CC(C)N1CCCN(c2nc(-c3cccnc3)nc3c2cnn3C)CC1", 43.8]
]}

* * *

Tested on: Plasmodium falciparum
Experiment: Screen against P. falciparum Asexual Blood Stage (ABS), at 5uM
Assay type: functional, Dd2
Details: tested at 5 uM
The campaign covered roughly 65,000 compounds. About 2,100 (3.2%) showed an effect of 50% or more. The median lay at about -52%. For the sample, strong results were picked, then their nearest neighbours and some compounds at random.
Label TRUE when INHIBITION is at or above -50%; anything below gets FALSE.

{"columns": ["Compound", "Classification"],
 "data": [
  ["O=S(=O)(Cc1c(F)cccc1Cl)NCCCN1CCCCCC1", "TRUE"],
  ["Cc1cccc(C(=O)N2C[C@@H](OCc3cccnc3)[C@H]3OCCC[C@@H]32)n1", "FALSE"],
  ["Cc1ccc(CN2Cc3c(C(=O)N(C)C)nn(C)c3C2)s1", "FALSE"],
  ["CC1CCN(CCCNS(=O)(=O)Cc2ccccc2F)CC1", "TRUE"],
  ["O=C(COC[C@]12COC[C@H]1CN(C1CCC1)C2)N1CCCC1", "FALSE"],
  ["CN(C)CCNc1ncccc1CNC(=O)Nc1cc(F)cc(F)c1", "TRUE"],
  ["CCN1CCC(CC(=O)NCc2nc(C)cc(C)n2)CC1", "TRUE"],
  ["CC(C)CS(=O)(=O)N1CCC2(CN(c3cccc(F)c3)C(=O)CN2C)C1 (stereo not given)", "FALSE"],
  ["Cc1cc(F)cc(S(=O)(=O)NCCCN2CCC(O)CC2)c1", "TRUE"]
]}

* * *

System: Plasmodium falciparum
Test: Screen against P. falciparum Asexual Blood Stage (ABS), at 5uM
Assay type: functional, Dd2
Details: tested at 5 uM
The whole screen tested about 65,000 compounds, of which about 2,100 (3.2%) showed an effect of 50% or more. The median lay at about -52%. What follows is part of a selection rich in strong results, with near analogues and random picks from the rest.
Consider the following partition of reported INHIBITION into named classes: class 0 = under -50%, class 1 = from -50% up to -10%, class 2 = -10% and over

{"columns": ["Compound", "Study system", "Classification"],
 "data": [
  ["O=C(c1c[nH]c(=O)[nH]c1=O)N1CCCC(c2cnccn2)C1 (stereo not given)", "Plasmodium falciparum", "class 0"],
  ["Cc1ccsc1-c1cccc(-c2ccn(CC3CCNC3)n2)c1 (stereo not given)", "Plasmodium falciparum", "class 2"],
  ["Cc1cccc2c1ccn2CCC(=O)Nc1c2c(nn1C)CSC2", "Plasmodium falciparum", "class 0"],
  ["Cc1ccc2cccc(S(=O)(=O)N(C)C3CCCN(C)C3)c2n1 (stereo not given)", "Plasmodium falciparum", "class 2"],
  ["CO[C@H]1CN(C(=O)OC(C)(C)C)CC1NCc1ccoc1 (stereo not given in full)", "Plasmodium falciparum", "class 0"],
  ["Cc1ccsc1CN1CCc2c(nc(N3CCCCC3C)[nH]c2=O)C1 (stereo not given)", "Plasmodium falciparum", "class 1"],
  ["O=C(NCc1cc[nH]n1)NCC(c1ccc(F)cc1)N1CCOCC1 (stereo not given)", "Plasmodium falciparum", "class 1"],
  ["O=C(NCc1ccnc(OCC(F)(F)F)c1)NCC1CCOC1 (stereo not given)", "Plasmodium falciparum", "class 1"],
  ["CCCN1CCC(NC(=O)c2csc(C)c2-c2ccccc2)CC1", "Plasmodium falciparum", "class 2"],
  ["Cc1cccnc1CN1CCN(C(=O)c2cnn(C(C)C)c2)CC1", "Plasmodium falciparum", "class 1"],
  ["O=C(NCc1cc[nH]n1)NCC(c1ccccc1)N1CCOCC1 (stereo not given)", "Plasmodium falciparum", "class 0"],
  ["CC(C)[C@@H]1CN(CCCOc2ccc(F)cc2)C[C@H]1NS(C)(=O)=O", "Plasmodium falciparum", "class 2"],
  ["Cc1nccc(-c2cccc(-c3ccn(CC4CCNC4)n3)c2)n1 (stereo not given)", "Plasmodium falciparum", "class 0"]
]}
